Experiment: NCI Yeast Anticancer Drug Screen. Data for the cln2 rad14 strain (AID 165);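 note: 0% = growth equal to vehicle treated cultures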
Conditions: S. cerevisiae cln2 rad14 strain, at 50.0 µM, active compounds read high
About 79,000 compounds went through this panel and 15% of them were active in at least one assay; those are over-represented in the sample as a whole.
Binary classification by growth inhibition, with 90% as an inclusive lower bound for y; all other cases are n.

Compound: CCN(CC)C(=O)N1CCN(c2cccc(Cl)c2)CC1
Assigned Label: y

Compound: O=C1CC(c2ccccc2)C(c2ccccc2)CO1 (stereo unspecified)
Assigned Label: y

Compound: C=Nc1ccc2ccccc2c1Cc1c(O)ccc2ccccc12
Assigned Label: y

Compound: COc1ccccc1Nc1nc(SC)ncc1SC
Assigned Label: n

Compound: OC(c1cc(-c2ccc(Cl)c(Cl)c2)nc2ccccc12)C1CCCCN1 (stereo unspecified)
Assigned Label: n

Compound: CC[C@H]1CN2CCc3cc(OC)c(OC)cc3[C@@H]2C[C@@H]1C[C@H]1NCCc2cc(OC)c(OC)cc21
Assigned Label: n

In: Given O=C(CCCSCCCC(=O)NNc1ccccc1)NNc1ccccc1 , state whether its growth inhibition is at least 90%.
Out: n

In: Also CNC(=S)N/N=C(\C=N\NC(=S)NC)c1ccccc1 , if possible.
Out: n

In: Next: CCC(=O)OC1=C(Br)C(=O)c2ccccc2C1=O
Out: n

In: Record: COc1ccc(OC)c(/C=C/NC=O)c1
Out: n

----------
Test: NCI Yeast Anticancer Drug Screen. Data for the mec2-1 strain (AID 157)
Details: S. cerevisiae mec2-1 strain, at 50.0 µM
Description: Growth inhibition of yeast strains with defined genetic alterations is measured as a screen for potential anti-cancer activity. Selected strains with alterations in DNA damage repair or cell cycle control were exposed to compounds and growth inhibition was measured relative to vehicle treated controls. The strain used in this assay is mec2-1
The panel holds about 79,000 compounds, 15% with a hit somewhere; the sample as a whole holds those more often. Activity calls are given as the source filed them. No stated cut-off is given here; in the data, active means growth inhibition above about 70%; inactive means the rest.
Classes to choose from: YES (active), NO (inactive)

In: Recorded test call requested for Cn1c(-c2ccc(/C=N/NC(=S)N/N=C/c3ccc(-c4c[n+]5ccsc5n4C)cc3)cc2)c[n+]2ccsc12
Out: YES

In: Field entry: CN1CCN(C2=C(Cl)C3(OCCS3)C(F)(F)C2(F)F)CC1 (stereo unspecified)
Out: NO

In: Also, N=C(N)SCc1ccc(Br)cc1 please.
Out: NO

In: Then this compound: C=CCOc1ccccc1C(=O)OC
Out: NO

In: Repeat with Oc1ccc2ccccc2c1I
Out: YES

In: Do the same for COc1ccc(CC2c3cc4c(cc3CCN2C)OCO4)c(C=O)c1OC (stereo unspecified) please
Out: YES

In: Queued: c1ccc(CSc2nnc(SCc3ccccc3)c3[nH]cnc23)cc1
Out: NO

In: One more compound: C/C(CCn1[nH]c(=O)ccc1=O)=N\Nc1ccc([N+](=O)[O-])cc1[N+](=O)[O-]
Out: NO

In: Let us now turn to FC(F)(F)C(F)(F)C1(F)C(F)(F)C(F)(F)C(F)(F)C(F)(F)C1(F)F
Out: YES

In: Now consider c1ccc(SSc2ccccc2)cc1 and answer again.
Out: NO

In: Do the same for NC(=S)NNc1c([N+](=O)[O-])cnn(-c2ccccc2)c1=O please
Out: NO

----------
compounds and their reported growth inhibition
Assay: NCI Yeast Anticancer Drug Screen. Data for the mlh1 rad18 strain (AID 175)
Conditions: S. cerevisiae mlh1 rad18 strain growth inhibition; at 50.0 µM; active compounds read high
The panel holds about 79,000 compounds, 15% with a hit somewhere; the sample as a whole holds those more often. Activity calls are given as the source filed them. Cut-off read from the data, not from the text of the source: active = growth inhibition above about 70%; inactive = the rest.

Compound: CCS/C(SC)=C(/c1ccccc1)[P+](c1ccccc1)(c1ccccc1)c1ccccc1
Readout Value: 91.8% (active)
//
Compound: O=C1COCC(=O)OCCOCCSCCOCCO1
Readout Value: 7.75% (inactive)
//
Compound: C/C(=N\NC(=S)NC12CC3CC(CC(C3)C1)C2)c1ccccn1
Readout Value: 97.3% (active)
//
Compound: COc1cc(C=O)c(C=O)cc1OC
Readout Value: 74.5% (active)

In: Tell me the measured growth inhibition of CCCCCCCCCCCCCCCC[N+](C)(C)C(C)c1ccccc1 (stereo not drawn) , please.
Out: 91.8% (active)

In: Try this compound next: O=[N+]([O-])c1ccccc1OS(=O)(=O)c1ccccc1
Out: 0.65% (inactive)

In: // repeat for O=C(O)CCCc1ccc2c(c1)CC1(C2)Cc2ccc(CCCC(=O)O)cc2C1 and report
Out: -5.8% (inactive)

In: And CC1(C)C2CCC1(CS(=O)O)C(=O)C2.[Ag] (stereo not drawn) ?
Out: 99.6% (active)

In: Do the same for COc1ccc(CN2CCCN(Cc3ccc(OC)cc3OC)C2c2cc(Br)ccc2O)c(OC)c1 please
Out: 98.7% (active)

In: Item: COc1ccc(-c2c(C#N)c(S)n(NS(=O)(=O)c3ccc(C)cc3)c(=O)c2C#N)cc1
Out: 71.5% (active)

In: What do you get for CCCCCCCCCCCCCCCCOc1ccc(S(=O)(=O)N/N=c2/sc3ccc(S(=O)(=O)O)cc3n2C)cc1C(=O)O ?
Out: 73.4% (active)

In: CCCCCC(C)[P+](c1ccccc1)(c1ccccc1)c1ccccc1 (stereo not drawn) ?
Out: 88.5% (active)

In: Same question for O=C(NCc1ccccc1)N1CCN(c2ccccc2)C1=O please.
Out: 11.7% (inactive)

----------
# growth inhibition listing for each entry below
Assay: NCI Yeast Anticancer Drug Screen. Data for the bub3 strain (AID 167)
Settings: S. cerevisiae bub3 mutant strain, at 50.0 µM, active compounds read high
This is part of a sample that, as a whole, favours compounds with a hit. Of some 79,000 tested, about 15% had one in any assay.
Give the number; % is assumed, so skip it.

// below: answered molecules
Molecule: CC(C(=O)O)C(N)C(=O)O (stereo not given)
Readout Value: 99.6

Molecule: O=C(NC1=Nc2c(ncn2COCCO)S(=O)(=O)[N-]1)c1ccccc1.[Ag+]
Readout Value: 98.3

Molecule: CCCCCCCCCCCCCC(=O)CBr
Readout Value: 85.8

Molecule: O=C(CSSCC(=O)Nc1ccccc1)Nc1ccccc1
Readout Value: 22.8

Molecule: CCOC(=O)n1c2ccccc2c(=O)n1CCO
Readout Value: 97.3

Molecule: CSC(SC)=C1C(=O)NC(Cc2ccccc2)C1=O (stereo not given)
Readout Value: 50.3

In: Which growth inhibition is listed for CCCCNCCCNCCCNC(=O)c1csc(-c2csc(CCNC(=O)C(NC(=O)C(C)C(O)C(C)NC(=O)C(NC(=O)c3nc(C(CC(N)=O)NCC(N)C(N)=O)nc(N)c3C)C(OC3OC(CO)C(O)C(O)C3OC3OC(CO)C(O)C(OC(N)=O)C3O)c3cnc[nH]3)C(C)O)n2)n1 (stereo not given) ?
Out: 93.9

----------
Test: NCI Yeast Anticancer Drug Screen. Data for the bub3 strain (AID 167)
Conditions: S. cerevisiae bub3 mutant strain, at 50.0 µM (retest, dose inferred, filed as 5.0)
The panel holds about 79,000 compounds, 15% with a hit somewhere; the sample as a whole holds those more often. Active and inactive are the calls of the source. Rule as the data show it: active = growth inhibition above about 70%; inactive = the rest.
Response enum: active, inactive

Compound: Oc1ccc(Br)cc1C=Nc1c(NC2CCCCC2)oc2ccc(Br)cc12
Assigned Label: inactive

In: // outcome(item) with item = C=CC(=O)c1ccc2c(c1)OCCOCCOCCOCCOCCO2
Out: active

In: Request: COc1nc(N)c(N=O)c(OCc2ccccc2)n1
Out: active

In: Same for Cc1c(N)ccc(O)c1C
Out: inactive

In: Try O=C1OC2(CCCC2)OC1c1ccccc1 (configuration not stated) next.
Out: inactive

In: Ok, now Cc1cc(NC(=S)SCc2ccc(Cl)cc2)c([N+](=O)[O-])cc1C
Out: active

In: Consider next the compound O=[N+]([O-])c1ccc(O)c(C2CCCCC2)c1 in the same way.
Out: active

In: Please do the same for N=c1c2ccccc2cc2c3ccccc3ccn12 as well.
Out: active

In: // query: CC(=C/c1ccccc1)/C=C1/NC(=S)N(/C=C2\C(=O)Oc3ccccc3C2=O)C1=O
Out: inactive

In: Now the same for CS(=O)(=O)OCCN(CCOS(C)(=O)=O)c1ccc(C=Nc2cccc(Br)c2)c(Cl)c1
Out: inactive

In: # iterate: CC(=O)Oc1ccc(/C=C2\N=C(c3ccccc3)OC2=O)c(OC(C)=O)c1
Out: active

In: Quick one: CCCCCCCCN=C(N)c1ccc(C(=O)OCC2CCCCC2)cc1
Out: active

----------
Test: NCI Yeast Anticancer Drug Screen. Data for the bub3 strain (AID 167)
Settings: S. cerevisiae bub3 mutant strain, at 5.0 µM (retest, dose inferred, filed as 0.5)
Compounds without any hit were thinned out: in the full panel of roughly 79,000, 15% have a hit. Active and inactive are the calls of the source. Rule as the data show it: active = growth inhibition above about 70%; inactive = the rest.
Mark one answer only. Choices: yes (1) = active, no (0) = inactive

Worked examples follow.
Molecule: Nc1cn(C2OC(CC(c3ccccc3)(c3ccccc3)c3ccccc3)C(O)C2O)c(=O)[nH]c1=O (stereo not given)
Assigned Label: no (0)

Molecule: C=C1CC(COc2ccc3c(C)cc(=O)oc3c2)(c2ccccc2)OC1=O (stereo not given)
Assigned Label: no (0)

Molecule: S=c1sc2ccccc2n1C=Nc1ccccc1
Assigned Label: no (0)

Molecule: O=C(CCCN1CCC2(CC1)CC(c1ccccc1)OC2=O)c1ccc(F)cc1 (stereo not given)
Assigned Label: no (0)

Molecule: N=C1C(=O)c2ccccc2-c2ccccc21
Assigned Label: no (0)

In: Each molecule tested received a call. Report the one for CCOC(=O)c1cnc2cc3cccccc3n2c1=O .
Out: no (0)

In: How about COC(=O)c1ccc(OCCC(=O)CCl)cc1 ?
Out: no (0)

In: Continue with CC1(CCC(=O)O)c2ccc3ccccc3c2Oc2c1ccc1ccccc21
Out: no (0)

In: Subsequent entry: Cc1ccc(Nc2nc3c(s2)C(=O)c2ccccc2C3=O)cc1
Out: yes (1)

In: Same read-out for O=c1cc(CSc2ccc(Cl)cc2)occ1O ?
Out: no (0)

In: Moving on to COc1ccccc1NC(=O)c1ccccc1F
Out: no (0)

In: Please answer likewise for Clc1nssc1=Nc1nonc1-c1ccccc1
Out: yes (1)

Data provenance: PubChem BioAssay (NCI)
